- System: HCT-116 cells
- experimental.details: MTT cytotoxicity in HCT-116 cells
- Type: cell-based
- particulars: Homo sapiens, HCT-116, hypoxia 24 h then normoxia 72 h, read-out: IC50 HCT-116 Hypoxia
quantity.kind: pIC50
Remember, pIC50 is on a log scale: it is -log10 of the molar concentration.

(Q) Entry Cc1cc(C)c2c(Cn3cc(CCO[C@H]4O[C@@H]5O[C@@]6(C)CC[C@H]7[C@H](C)CC[C@@H]([C@H]4C)[C@@]57OO6)nn3)cc(=O)oc2c1 : reported pIC50 = ?
(A) 4.59

(Q) Also need C[C@H]1[C@@H](OCCc2cn(Cc3cc4cc(Cl)ccc4oc3=O)nn2)O[C@@H]2O[C@@]3(C)CC[C@H]4[C@H](C)CC[C@@H]1[C@@]24OO3 , thanks.
(A) 4.19

(Q) Let us now turn to Cc1cccc2c(OCc3cn(CCCO[C@H]4O[C@@H]5O[C@@]6(C)CC[C@H]7[C@H](C)CC[C@@H]([C@H]4C)[C@@]57OO6)nn3)cc(=O)oc12
(A) 4.37

(Q) Input Cc1cc(C)c2oc(=O)cc(OCc3cn(CCCO[C@H]4O[C@@H]5O[C@@]6(C)CC[C@H]7[C@H](C)CC[C@@H]([C@H]4C)[C@@]57OO6)nn3)c2c1
(A) 4.03

(Q) What do you have for C[C@H]1[C@@H](OCCc2cn(Cc3cc4cc(Br)cc(Br)c4oc3=O)nn2)O[C@@H]2O[C@@]3(C)CC[C@H]4[C@H](C)CC[C@@H]1[C@@]24OO3 ?
(A) 4.06
